- System Tested: FGF14:Nav1.6 C-tail complex (Homo sapiens, UniProt Q92915+Q9UQD0)
- Construct: polymerase chain reaction (PCR) amplification of the FGF14 open reading frame (nt 1–855); C-terminal fragment of Nav1.6 (amino acids 1763–1976) fused with CD4ΔC-tail (amino acids 1–395); expressed in transfected cells
- Sequence (Q92915 1-252 isoform Q92915-2): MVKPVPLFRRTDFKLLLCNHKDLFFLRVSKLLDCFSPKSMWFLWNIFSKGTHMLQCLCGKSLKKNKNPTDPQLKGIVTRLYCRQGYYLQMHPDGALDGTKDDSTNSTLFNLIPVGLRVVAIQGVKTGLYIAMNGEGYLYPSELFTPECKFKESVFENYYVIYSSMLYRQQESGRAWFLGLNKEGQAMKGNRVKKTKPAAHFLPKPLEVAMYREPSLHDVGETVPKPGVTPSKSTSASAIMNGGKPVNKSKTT
- Sequence (Q9UQD0 1763-1976 limits assumed): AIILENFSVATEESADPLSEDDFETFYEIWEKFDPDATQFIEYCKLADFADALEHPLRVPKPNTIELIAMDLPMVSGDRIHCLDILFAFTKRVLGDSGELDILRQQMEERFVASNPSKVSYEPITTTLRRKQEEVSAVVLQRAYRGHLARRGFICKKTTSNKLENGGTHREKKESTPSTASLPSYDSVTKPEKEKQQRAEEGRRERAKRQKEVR
- Assay Procedure: Split-luciferase complementation assay (LCA) in Clone V double stable HEK293 cells
- Type: cell-based
- Experimental Setup: CC_NCI screening; average of Set 1 and Set 2; normalized to 0.3% DMSO controls
Hi there, I'd appreciate the recorded Split Luciferase Assay %Lum Avg for every entry that follows.
Numbers only, in %.

Please report Split Luciferase Assay %Lum Avg for every entry that follows.
1. C=CC[C@@H]1/C=C(\C)C[C@H](C)C[C@H](OC)[C@H]2O[C@@](O)(C(=O)C(=O)N3CCCC[C@H]3C(=O)O[C@H](/C(C)=C/[C@@H]3CC[C@@H](O)[C@H](OC)C3)[C@H](C)[C@@H](O)CC1=O)[C@H](C)C[C@@H]2OC [FK-506]
2. Cn1cc(CNCC2CCN(c3ncc(C(=O)NO)cn3)CC2)c2ccccc21 [JNJ-26481585]
3. O=C(c1ccc(OCCN2CCCCC2)cc1)c1c(-c2ccc(O)cc2)sc2cc(O)ccc12 [Raloxifene]
4. CCc1cc(Nc2nccc(-c3c(-c4ccc(OC)c(C(=O)Nc5c(F)cccc5F)c4)nc4ccccn34)n2)c(OC)cc1N1CCC(N2CCN(S(C)(=O)=O)CC2)CC1 [GSK1904529A]
5. Cn1cc(C2=C(c3cn(C4CCN(Cc5ccccn5)CC4)c4ccccc34)C(=O)NC2=O)c2ccccc21 [ENZASTAURIN]
6. CN(C)C(=N)N=C(N)N [METFORMIN]

RESULT:
1: 86.16; 2: 110.77; 3: 54.44; 4: 104.62; 5: 90.39; 6: 116.08

QUERY: Record lookup: for FGF14:Nav1.6 C-tail complex (Homo sapiens, UniProt Q92915+Q9UQD0), what Split Luciferase Assay %Lum Avg belongs to CN(C)Cc1c(C(=O)NCCOc2ccc(C(=O)NO)cc2)oc2ccccc12 [PCI-24781] ?
RESULT: 108.83

* * *

- System Tested: FGF14:Nav1.6 C-tail complex (Homo sapiens, UniProt Q92915+Q9UQD0)
- Construct: polymerase chain reaction (PCR) amplification of the FGF14 open reading frame (nt 1–855); C-terminal fragment of Nav1.6 (amino acids 1763–1976) fused with CD4ΔC-tail (amino acids 1–395); expressed in transfected cells
- Assay Procedure: Split-luciferase complementation assay (LCA) in Clone V double stable HEK293 cells
- Assay type: cell-based
- Experimental Setup: CC_NCI screening; LCA luminescence, biological replicate Set 1; normalized to on-plate 0.3% DMSO controls (n=16 per plate)
Structures can show the parent of a compound that is named as a salt.
Labelling: Split Luciferase Assay % Lum Set 1 reported below 40% becomes yes (1); at or above becomes no (0).

- CC(C)C[C@H](NC(=O)[C@H](Cc1ccccc1)NC(=O)c1cnccn1)B(O)O [BORTEZOMIB]: no (0)
- Cc1cc2c(F)c(Oc3ncnn4cc(OC[C@@H](C)O)c(C)c34)ccc2[nH]1: yes (1)
- O=C(O)C(=O)O.[NH-][C@@H]1CCCC[C@H]1[NH-].[Pt+2]: no (0)
- NCCCNCCSP(=O)(O)O: no (0)
- CN1CCN(CCOc2cc(OC3CCOCC3)c3c(Nc4c(Cl)ccc5c4OCO5)ncnc3c2)CC1 [AZD 0530]: yes (1)

QUERY: A record lists COC(=O)C[C@](O)(CCCC(C)(C)O)C(=O)O[C@@H]1C(OC)=C[C@]23CCCN2CCc2cc4c(cc2[C@H]13)OCO4 [Omacetaxine mepesuccinate] . Is its Split Luciferase Assay % Lum Set 1 below 40%?
RESULT: yes (1)

QUERY: A record lists CN(C)C(=N)N=C(N)N . Is its Split Luciferase Assay % Lum Set 1 below 40%?
RESULT: no (0)

QUERY: A record lists COc1cccc2c1C(=O)c1c(O)c3c(c(O)c1C2=O)C[C@@](O)(C(=O)CO)C[C@@H]3O[C@H]1C[C@H](N)[C@@H](O)[C@H](C)O1 [Epirubicin hydrochloride] . Is its Split Luciferase Assay % Lum Set 1 below 40%?
RESULT: no (0)
